These measurements were taken from PubChem BioAssay.

Target: E3 ubiquitin-protein ligase XIAP (Homo sapiens) (UniProt P98170)
Sequence (P98170 whole entry, looked up): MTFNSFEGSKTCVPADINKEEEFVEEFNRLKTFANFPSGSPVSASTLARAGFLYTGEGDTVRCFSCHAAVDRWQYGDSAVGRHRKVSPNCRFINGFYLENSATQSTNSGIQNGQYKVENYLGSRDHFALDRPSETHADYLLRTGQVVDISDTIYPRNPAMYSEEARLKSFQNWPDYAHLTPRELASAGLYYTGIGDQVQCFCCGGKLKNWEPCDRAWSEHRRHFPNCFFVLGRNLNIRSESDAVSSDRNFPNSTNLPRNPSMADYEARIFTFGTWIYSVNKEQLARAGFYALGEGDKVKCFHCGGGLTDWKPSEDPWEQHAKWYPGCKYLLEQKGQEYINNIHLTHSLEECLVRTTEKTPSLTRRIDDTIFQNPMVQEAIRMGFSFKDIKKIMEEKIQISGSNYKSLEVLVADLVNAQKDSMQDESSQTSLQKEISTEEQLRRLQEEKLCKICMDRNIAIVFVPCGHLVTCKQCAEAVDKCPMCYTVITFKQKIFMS
Assay: XIAP binders, primary screen, biophysical, small-molecule microarray, fluorescence 635 nm (AID 1181);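 note: score merges 667 nm emission and signal to noise over triplicate slides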
Details: small-molecule microarray binding, higher = more signal
attribute.measured: composite z-score

INSERT INTO measurements (molecule, attribute_measured, reported_measurement) VALUES
  ('Cc1c(NC(=O)/C(C#N)=C/C=C/c2ccc([N+](=O)[O-])cc2)c(=O)n(-c2ccccc2)n1C', 'composite z-score', -0.0581),
  ('O=C1OCC=C[C@H]2OC34C=CCN(Cn5nnc6ccccc65)C(=O)[C@H]3N(CCO)C(=O)[C@@H]4[C@@H]12 (stereo partly drawn)', 'composite z-score', -0.0749),
  ('CCOC(=O)C[C@H]1[C@H](OC(=O)c2ccccc2-c2ccccc2)[C@@H](NC(=O)CC(C)C)c2cc(OCCCO)ccc2N1C(=O)c1ccccc1', 'composite z-score', 0.0412),
  ('COc1ccc(NN2C(C(O)c3ccccc3)C=CC3C(=O)N(C4CCCCC4)C(=O)C32)cc1 (stereo not drawn)', 'composite z-score', 0.0348),
  ('O=C1C2C=CC(C(O)C3CCCCC3)N(Nc3ccccc3F)C2C(=O)N1c1ccccc1 (stereo not drawn)', 'composite z-score', -0.235),
  ('COC(=O)Cn1c(C(=O)N(C)C)cc2c1C[C@H]1CN(C(=O)c3ccccc3)[C@@](Cc3ccccc3)(C(=O)OC)[C@@H]21', 'composite z-score', 0.343),
  ('COc1cccc(C)c1NC(=O)O[C@H]1[C@H](OC(=O)Nc2ccc3c(c2)OCO3)[C@H](OC(=O)Nc2ccc3c(c2)OCO3)[C@@H](OC)O[C@@H]1CO', 'composite z-score', 1.64),
  ('C=C(COC)C(=O)CC[C@H](OC(C)=O)c1ccc(CO)o1', 'composite z-score', 0.194);
